- procedure.details: supercomplex reporter luminescence per Hoechst cell count – Hoechst nuclei count (AID 1645838);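 further: control cybrid cells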;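 on z-score: higher means more mitochondrial supercomplex formation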
- condition.label: Cells, luminescence/Hoechst cell count ratio, library stock concentration (final well concentration not given) 80 uM, stronger effect = higher value
Screen size: about 2,000 compounds; about 100 (5%) were called active. This is one part of a sample in which actives are shown more often than they occur.
z-score below 0.03 gives not fulfilled; z-score at or above it gives fulfilled.

Cc1ccc(-c2ccc3c(c2)C=C(C(=O)Nc2ccc(C[N+](C)(C)C4CCOCC4)cc2)CCC3)cc1 ... fulfilled
O=C(Nc1ccccc1)Nc1ccc(-c2ccc(C(=O)C3CCCC3C(=O)O)cc2)cc1 (stereo not given) ... not fulfilled
COc1ccc(C(=O)Nc2sc(Nc3ccccc3)nc2C(N)=O)cc1 ... fulfilled
CCCCCCNC(=O)Nc1ccc(S(=O)(=O)Nc2ccc(CCNCC(O)COc3ccc(O)cc3)cc2)cc1 (stereo not given) ... not fulfilled
CC#CCC(C)C(O)C=CC1C(O)C[C@@H]2CC(=CCCCC(=O)O)C[C@@H]12 (stereo not given in full) ... not fulfilled

Lookup: Would you say `Cn1cc(C=C2C(=O)Nc3cccnc32)c2ccccc21` shows z-score at minimum 0.03?
Found: not fulfilled

Lookup: State whether the measured z-score reaches 0.03, counting equality as reaching it, for CC(C)(C)C(O)C=Cc1ccc2c(c1)OCO2 (stereo not given)
Found: fulfilled

Lookup: z-score >= 0.03 for `C#Cc1cccc(Nc2ncnc3cc(OCCOC)c(OCCOC)cc23)c1` ?
Found: fulfilled

Lookup: Threshold query (z-score >= 0.03) on `CS(=O)(=O)N1CCc2c(-c3cnc(N)nc3)nc(N3CCOCC3)nc21`
Found: not fulfilled

Lookup: Could you verify whether the entry COC1C(N(C)C(=O)c2ccccc2)C[C@@H]2O[C@]1(C)n1c3ccccc3c3c4c(c5c6ccccc6n2c5c31)C(=O)NC4 (stereo not given in full) shows z-score of no less than 0.03?
Found: fulfilled

---

- procedure.details: supercomplex reporter luminescence per Hoechst cell count – Hoechst nuclei count (AID 1645838);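 further: control cybrid cells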;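 on z-score: higher means more mitochondrial supercomplex formation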
- condition.label: Cells, luminescence/Hoechst cell count ratio, library stock concentration (final well concentration not given) 80 uM, stronger effect = higher value
Screen size: about 2,000 compounds; about 100 (5%) were called active. The entries come from a sample that favours actives as a whole.
Kind request: treat 0.09 as inclusive, so z-score at 0.09 or higher is 1.0, anything lower is 0.0.

O=C(O)c1ccc(Nc2ncc3c(n2)-c2ccc(Cl)cc2C(c2c(F)cccc2F)=NC3)cc1 ... 0.0

Lookup: Hello, I need to know if CC1COCCN1c1cc(C2(S(C)(=O)=O)CC2)nc(-c2cccc3[nH]ccc23)n1 (centres undefined) has measured z-score not below 0.09. Thanks!
Found: 0.0

Lookup: z-score >= 0.09 for CC1=C(C(=O)Nc2ccccc2C)C(c2cccc([N+](=O)[O-])c2)C2=C(CCCC2=O)N1 (centres undefined) ?
Found: 1.0

Lookup: Quick check, z-score >= 0.09? OC(COc1cccc2ncccc12)CN1CCN(C2c3ccccc3C3C(c4ccccc42)C3(F)F)CC1 (centres undefined)
Found: 1.0

Lookup: Could you verify whether the entry `NCC(=O)Nc1ccc(-n2nc(C(F)(F)F)cc2-c2ccc3c(ccc4ccccc43)c2)cc1` shows z-score of no less than 0.09?
Found: 0.0

---

- procedure.details: supercomplex reporter luminescence per Hoechst cell count – Hoechst nuclei count (AID 1645838);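 further: control cybrid cells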
- condition.label: Cells, luminescence/Hoechst cell count ratio, measured here: cell number, Hoechst nuclei count, library stock concentration (final well concentration not given) 10 mM
In all, about 2,000 compounds went through this assay and about 100 (5%) were called active. Many of the other results were omitted from the sample, so actives are more common in it than they were.
readout: cell count
Answer with a bare number; do not write a unit.

CN1CCN(c2ccc(Nc3cc(-c4cccc(-n5ccc6cc(C7CC7)cc(F)c6c5=O)c4CO)cn(C)c3=O)nc2)CC1 ... 4620
CC(C)OC(=O)CCCC=CCC1C(O)CC(O)C1C=CC(F)(F)COc1ccccc1 (stereo not drawn) ... 5570
COC(=O)C(NC(=O)c1cc(-c2ccccc2)nc2ccccc12)c1ccccc1 (stereo not drawn) ... 6540
NC(=O)c1cnc(NC2CCCCC2N)nc1Nc1cccc(-n2nccn2)c1 (stereo not drawn) ... 3000
CCCC(=O)Nc1nc(-c2ccccc2)cc(-c2ccccc2)n1 ... 5140

Lookup: Can you share its cell count? I mean this compound: CCC(=O)NCC1CC1c1cccc2c1CCO2 (stereo not drawn)
Found: 7060

Lookup: Report cell count for `CC(C)(C)OC(=O)N1CCC(OC2CCNCC2)CC1` please.
Found: 4420

Lookup: Tell me the measured cell count of `COc1ccc(C(=O)O)cc1` , please.
Found: 5840

---

- procedure.details: supercomplex reporter luminescence per Hoechst cell count – Hoechst nuclei count (AID 1645838);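 further: control cybrid cells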;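 on z-score: higher means more mitochondrial supercomplex formation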
- condition.label: Cells, luminescence/Hoechst cell count ratio, library stock concentration (final well concentration not given) 10 mM, stronger effect = higher value
Screen size: about 2,000 compounds; about 100 (5%) were called active. Many of the other results were omitted from the sample, so actives are more common in it than they were.
Label scheme for z-score: lower than 0.1 is Condition not met, 0.1 and above is Condition met.

COc1cccc(-c2ccc(NC(=O)C3=C(C(=O)O)CCC3)c(F)c2)c1 ... Condition met
COc1cccc(OC)c1-c1ccc(CC(NC(=O)c2c(Cl)cccc2Cl)C(=O)O)cc1 (configuration not stated) ... Condition not met
COc1cc(NC(=O)c2ccc(-c3ccc(Cl)cc3)o2)cc(OC)c1 ... Condition not met
Cc1ccc(NC(=O)c2ccc(CN3CCN(C)CC3)cc2)cc1Nc1nccc(-c2cccnc2)n1 ... Condition not met
CC(C)(C)CC1NC(C(=O)NC2CCC(O)CC2)C(c2cccc(Cl)c2F)[C@]12C(=O)Nc1cc(Cl)ccc12 (some centres not stated) ... Condition not met

Lookup: Confirm if z-score reported for the compound `CN(C)C(=O)c1cc2cnc(Nc3ccc(N4CCNCC4)cn3)nc2n1C1CCCC1` is 0.1 or above.
Found: Condition met

Lookup: Check this compound for z-score at or above 0.1: `COc1cc2nccc(Oc3ccc(NC(=O)Nc4cc(C)on4)c(Cl)c3)c2cc1OC`
Found: Condition met

Lookup: Quick check, z-score >= 0.1? `O=C(O)c1cc(O)c2ccccc2c1O`
Found: Condition met

Lookup: Answer whether z-score of Cn1c(SCC(=O)N2CCCC2C(=O)Nc2ccccc2-c2ccccc2)nc2ccccc21 (configuration not stated) is greater than or equal to 0.1.
Found: Condition not met

Lookup: Reported z-score at or above 0.1? O=c1ncccn1C1OC(CO)C(O)C1O (configuration not stated)
Found: Condition met

Lookup: I'd appreciate it if you could say whether O=C(O)c1cc(C(F)(F)F)ccc1N1CCC(OCc2ccccn2)C1 (configuration not stated) has z-score at least equal to 0.1.
Found: Condition not met

---

- procedure.details: supercomplex reporter luminescence per Hoechst cell count – Hoechst nuclei count (AID 1645838);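 further: control cybrid cells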;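 on z-score: higher means more mitochondrial supercomplex formation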
- condition.label: Cells, luminescence/Hoechst cell count ratio, library stock concentration (final well concentration not given) 2 mM, stronger effect = higher value
About 100 (5%) of roughly 2,000 compounds were called active. For the sample, actives were picked, then their nearest neighbours and some compounds at random.
z-score values for the molecules below.
# print the numeric value only

The cases that follow already have their z-score on record.
COc1cc(N2CCC(C(N)=O)CC2)ccc1Nc1nc(N)c(Cl)c(Nc2ccccc2S(=O)(=O)C(C)C)n1 ... -0.497
CCCCN(Cc1ccc(C(=O)NO)cc1)C(=O)Nc1ccccc1 ... 0.545
COc1cc(C(=O)NS(=O)(=O)c2ccccc2C)ccc1Cc1cn(C)c2ccc(NC(=O)OC3CCCC3)cc12 ... -0.394
CNC(=O)Nc1ccc(-c2nc(N3CC4CCC(C3)O4)c3cnn(C4CCC5(CC4)OCCO5)c3n2)cc1 ... 1.64
Cc1cc(C)cc(NC(=O)Nc2ccc(S(N)(=O)=O)cc2)c1 ... -0.436

--- query ---
Lookup: Request the reported z-score associated with `COc1ccc(C(=O)C(=O)c2ccc(OC)cc2)cc1`
Found: -0.561

---

- procedure.details: supercomplex reporter luminescence per Hoechst cell count – Hoechst nuclei count (AID 1645838);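 further: control cybrid cells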;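 on z-score: higher means more mitochondrial supercomplex formation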
- condition.label: Cells, luminescence/Hoechst cell count ratio, library stock concentration (final well concentration not given) 1.67 mM, stronger effect = higher value
The whole screen tested about 2,000 compounds, of which about 100 (5%) were called active. The full list was thinned out, with actives kept by preference. Positions of bridges follow the written chain, without caps; N, C: chain ends. Non-standard residues stand in square brackets, D forms with d. Residues, ends and D or L forms follow the SMILES beside them. hArg = N=C(N)NCCCC[CH](N)C(=O)O; Mpa = O=C(O)CCS
readout: z-score
Lab note: jot down the number only; don't add units.

Solved entries:
COc1cc2c(NC3CCN(C(C)C)CC3)nc(C3CCCCC3)nc2cc1OCCCN1CCCC1 ... -0.454
CC(C)CC(NC(=O)NC(CCC(=O)O)C(=O)O)C(=O)O (configuration not stated) ... 0.469
Cc1ccc(NC(=O)c2cccc(C(C)(C)C#N)c2)cc1Nc1ccc2ncn(C)c(=O)c2c1 ... 0.888

Lookup: I would be grateful if you could share the reported z-score for `COc1cc2nc(N3CCCN(C)CC3)nc(NC3CCN(Cc4ccccc4)CC3)c2cc1OC` .
Found: 0.298

Lookup: I am curious: what z-score value has been reported for CC(Sc1nc2ccccc2[nH]1)C(=O)NN=Cc1cc(Br)ccc1O (configuration not stated) ?
Found: -0.734

Lookup: Item `CN1c2ccc([N+](=O)[O-])cc2N=C(c2ccc(C(=O)O)cc2)c2cc3c(cc21)C(C)(C)CCC3(C)C` has what recorded z-score?
Found: -0.234

Lookup: Field request: z-score | item: `N=C(N)c1ccc2cc(OC(=O)c3ccc(N=C(N)N)cc3)ccc2c1`
Found: -0.356

Lookup: Consider the molecule shown here: `CCCCCCCCCCCCCCC(=O)NCCO` What is its recorded z-score?
Found: -0.219

Lookup: Can you look up the measured z-score of `Cc1ccc(C)c(-n2sc3cc(F)ccc3c2=O)c1` for me?
Found: -1.02

Lookup: Item `CC(=O)c1c(C)c2cnc(Nc3ccc(N4CCNCC4)cn3)nc2n(C2CCCC2)c1=O` has what recorded z-score?
Found: 1.11

Lookup: Please report the recorded z-score for COC(=O)C(NC(=O)c1cc(-c2ccccc2)nc2ccccc12)c1ccccc1 (configuration not stated) .
Found: -0.176

Lookup: Quick one: z-score for NC(=O)C1CSSCCC(=O)NC(CCCCN=C(N)N)C(=O)NCC(=O)NC(CC(=O)O)C(=O)NC(Cc2c[nH]c3ccccc23)C(=O)N2CCCC2C(=O)N1 (configuration not stated) ([Mpa][hArg]GDWPC-NH2; disulfide 1-7; configuration not given here) ?
Found: -0.38
